assay: NF-kB promoter reporter activators, neuronal cells, dose response, cell-based, SH-SY5Y, luciferase (AID 1241); conditions: fold induction
Below is a list of entries, each paired with its recorded EC50 value.

Q: Quick one: EC50 of COc1cccc(/C=C/C(=O)Nc2ccc3c(c2)OCCO3)c1 ?
Ans: 3.94 µM

Q: Quick one: EC50 of Cc1ccc2nc(-c3ccc(NC(=O)COC(=O)c4ccc(=O)[nH]c4)cc3)sc2c1 ?
Ans: 0.66 µM

Q: Quick one: EC50 of N#CC1(c2ccc(NC(=O)c3ccccc3F)cc2)CCCC1 ?
Ans: 1.08 µM

Q: Quick one: EC50 of CCCCNc1ncnc2c1cnn2-c1ccc(Cl)cc1 ?
Ans: 7.76 µM

Q: Quick one: EC50 of NC(=O)c1ccccc1N/C=C/C(=O)c1cccs1 ?
Ans: 4.95 µM
